- measurementProtocol: MHET released, HPLC; higher = more MHET released; extreme values may be limits of the assay
- testParameters: PET substrate: aFilm; 70 °C; pH 8.5; 24 h
What MHET released was measured for each of the following?
One number for each entry, in mM.

The following sequences have reported results that may help.
Q) Quick one: MHET released of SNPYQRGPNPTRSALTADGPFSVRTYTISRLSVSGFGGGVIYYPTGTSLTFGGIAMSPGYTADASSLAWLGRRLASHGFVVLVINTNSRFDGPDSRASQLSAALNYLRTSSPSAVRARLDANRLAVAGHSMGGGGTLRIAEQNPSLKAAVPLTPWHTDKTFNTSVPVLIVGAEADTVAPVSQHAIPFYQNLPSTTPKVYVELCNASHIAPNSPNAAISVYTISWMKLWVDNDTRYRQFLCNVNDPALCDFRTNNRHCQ [LCC-ICCG RIP] ?
A) 0.217

Q) Entry under review: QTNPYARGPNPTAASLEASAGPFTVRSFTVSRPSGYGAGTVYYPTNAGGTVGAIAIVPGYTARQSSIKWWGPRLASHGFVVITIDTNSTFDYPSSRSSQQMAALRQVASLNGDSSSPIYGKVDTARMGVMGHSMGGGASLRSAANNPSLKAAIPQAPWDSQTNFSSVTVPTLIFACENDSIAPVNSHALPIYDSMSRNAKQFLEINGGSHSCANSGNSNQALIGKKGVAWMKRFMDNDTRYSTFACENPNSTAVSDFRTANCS [DuraPETase] . Reported MHET released?
A) 0.00981

Further cases:
Q) MHET released for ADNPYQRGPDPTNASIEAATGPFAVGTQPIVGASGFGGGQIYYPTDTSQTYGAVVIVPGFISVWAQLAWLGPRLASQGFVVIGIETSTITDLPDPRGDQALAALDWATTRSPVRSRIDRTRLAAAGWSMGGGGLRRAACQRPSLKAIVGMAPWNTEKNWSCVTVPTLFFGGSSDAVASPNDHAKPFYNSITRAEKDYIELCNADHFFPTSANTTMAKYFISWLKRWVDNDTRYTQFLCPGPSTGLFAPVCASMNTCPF [CaPETaseM9] ?
A) 0.00345

* * *

Give measured terephthalic acid for each item. Keep answers brief.
- measurementProtocol: terephthalic acid (TPA) released, HPLC; higher = more TPA released; extreme values may be limits of the assay
- testParameters: PET substrate: cryPow; 60 °C; pH 4.5; 24 h
One number for each entry, in mM.

Completed entries (count: 5):
Q) Tell me the measured terephthalic acid of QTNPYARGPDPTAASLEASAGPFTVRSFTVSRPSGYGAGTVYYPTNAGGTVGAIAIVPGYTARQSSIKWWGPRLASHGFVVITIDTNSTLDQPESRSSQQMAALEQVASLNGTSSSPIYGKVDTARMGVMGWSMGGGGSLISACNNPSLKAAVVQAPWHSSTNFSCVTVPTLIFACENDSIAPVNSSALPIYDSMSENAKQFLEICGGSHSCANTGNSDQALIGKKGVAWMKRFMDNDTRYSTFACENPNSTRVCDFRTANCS [Z1-PETase] , please.
A) 0

Q) Any idea what terephthalic acid was measured for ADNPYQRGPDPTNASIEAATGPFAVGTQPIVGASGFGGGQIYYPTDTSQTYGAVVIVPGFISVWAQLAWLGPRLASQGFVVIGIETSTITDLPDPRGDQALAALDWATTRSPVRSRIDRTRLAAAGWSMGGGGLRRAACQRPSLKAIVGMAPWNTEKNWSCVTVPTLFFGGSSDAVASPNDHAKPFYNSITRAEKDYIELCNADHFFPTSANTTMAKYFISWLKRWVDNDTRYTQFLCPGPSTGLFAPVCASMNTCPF [CaPETaseM9] ?
A) 0.0214

Q) Requested read-out: terephthalic acid. Entry: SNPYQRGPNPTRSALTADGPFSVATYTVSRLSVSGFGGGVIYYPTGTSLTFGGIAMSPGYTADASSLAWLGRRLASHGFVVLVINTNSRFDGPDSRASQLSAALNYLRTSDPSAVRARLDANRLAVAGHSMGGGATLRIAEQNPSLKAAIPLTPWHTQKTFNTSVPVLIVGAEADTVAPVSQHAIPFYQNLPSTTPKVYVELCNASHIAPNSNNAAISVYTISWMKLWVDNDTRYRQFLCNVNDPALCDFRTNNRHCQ [LCC-ICCG DAQI]
A) 0.0214

Q) Endpoint output: terephthalic acid of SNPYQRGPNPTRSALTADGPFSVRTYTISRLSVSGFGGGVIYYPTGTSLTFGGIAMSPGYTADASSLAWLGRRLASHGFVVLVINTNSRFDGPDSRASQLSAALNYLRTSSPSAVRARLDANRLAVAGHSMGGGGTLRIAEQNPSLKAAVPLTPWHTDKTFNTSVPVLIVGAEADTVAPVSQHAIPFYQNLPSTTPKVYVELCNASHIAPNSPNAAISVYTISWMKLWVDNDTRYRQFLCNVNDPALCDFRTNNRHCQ [LCC-ICCG RIP] . Value?
A) 0.0388

Q) Sample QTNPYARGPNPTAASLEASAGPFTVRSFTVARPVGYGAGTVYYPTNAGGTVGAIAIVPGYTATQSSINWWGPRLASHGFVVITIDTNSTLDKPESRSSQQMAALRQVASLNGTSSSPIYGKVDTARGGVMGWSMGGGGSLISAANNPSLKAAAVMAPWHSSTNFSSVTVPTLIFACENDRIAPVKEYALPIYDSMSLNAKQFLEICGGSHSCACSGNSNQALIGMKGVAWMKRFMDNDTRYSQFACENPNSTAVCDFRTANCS [HotPETase] — what was its terephthalic acid?
A) 0.0209

Turning to the following sequence.
Q) Would you kindly share the measured terephthalic acid for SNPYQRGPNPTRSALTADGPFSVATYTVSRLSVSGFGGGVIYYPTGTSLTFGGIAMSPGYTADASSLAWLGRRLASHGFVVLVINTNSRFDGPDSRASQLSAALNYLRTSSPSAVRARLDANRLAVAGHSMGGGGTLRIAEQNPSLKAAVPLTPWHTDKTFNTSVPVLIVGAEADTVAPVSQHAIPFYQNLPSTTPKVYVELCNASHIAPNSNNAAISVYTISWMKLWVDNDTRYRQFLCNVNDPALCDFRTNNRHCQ [LCC-ICCG] ?
A) 0.0129

* * *

- measurementProtocol: MHET released, HPLC; higher = more MHET released; extreme values may be limits of the assay
- testParameters: PET substrate: cryPow; 60 °C; pH 6.5; 24 h
parameterMeasured: MHET released (mM)
Numbers only, in mM.

Record MHET released for all entries; do not skip any.
1. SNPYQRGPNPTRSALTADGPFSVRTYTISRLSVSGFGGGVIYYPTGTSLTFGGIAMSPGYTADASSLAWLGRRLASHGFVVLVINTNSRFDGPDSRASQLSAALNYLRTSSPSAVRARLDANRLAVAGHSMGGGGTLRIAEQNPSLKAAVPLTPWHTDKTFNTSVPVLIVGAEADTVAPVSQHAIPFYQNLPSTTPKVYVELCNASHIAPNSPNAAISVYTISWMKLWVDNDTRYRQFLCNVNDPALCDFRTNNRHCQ [LCC-ICCG RIP]
2. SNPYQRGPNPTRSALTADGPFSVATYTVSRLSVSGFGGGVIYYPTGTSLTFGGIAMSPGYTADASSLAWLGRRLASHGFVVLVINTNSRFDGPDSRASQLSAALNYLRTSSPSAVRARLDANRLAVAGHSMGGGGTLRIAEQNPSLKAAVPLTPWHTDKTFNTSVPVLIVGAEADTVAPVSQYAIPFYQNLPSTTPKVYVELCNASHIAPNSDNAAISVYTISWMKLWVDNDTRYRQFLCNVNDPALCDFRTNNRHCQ [LCC-A2]

A)
1. 0.257
2. 0.476

* * *

Task for the reader: assign each of the following sequences its reported terephthalic acid.
- measurementProtocol: terephthalic acid (TPA) released, HPLC; higher = more TPA released; extreme values may be limits of the assay
- testParameters: PET substrate: aFilm; 60 °C; pH 9.5; 24 h
Numbers only, in mM.

In the examples that follow, each entry is paired with its recorded terephthalic acid.
Q) Fill blank: measured terephthalic acid of the sequence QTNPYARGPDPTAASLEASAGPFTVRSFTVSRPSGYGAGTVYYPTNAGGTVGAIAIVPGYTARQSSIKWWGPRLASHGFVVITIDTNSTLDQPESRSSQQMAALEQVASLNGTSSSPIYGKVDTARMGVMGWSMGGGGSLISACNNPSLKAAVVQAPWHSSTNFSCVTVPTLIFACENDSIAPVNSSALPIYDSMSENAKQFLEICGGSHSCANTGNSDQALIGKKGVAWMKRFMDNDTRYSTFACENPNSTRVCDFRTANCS [Z1-PETase] is ____.
A) 1.22

Q) Entry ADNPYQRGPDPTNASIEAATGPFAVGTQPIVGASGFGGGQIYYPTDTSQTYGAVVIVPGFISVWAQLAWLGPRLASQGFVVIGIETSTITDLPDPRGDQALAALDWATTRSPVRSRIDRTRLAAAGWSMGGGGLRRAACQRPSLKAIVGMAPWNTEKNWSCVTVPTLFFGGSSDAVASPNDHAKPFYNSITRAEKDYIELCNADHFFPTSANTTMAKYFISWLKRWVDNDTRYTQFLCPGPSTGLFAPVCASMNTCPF [CaPETaseM9] has what terephthalic acid?
A) 0.297

Q) Return reported terephthalic acid; argument: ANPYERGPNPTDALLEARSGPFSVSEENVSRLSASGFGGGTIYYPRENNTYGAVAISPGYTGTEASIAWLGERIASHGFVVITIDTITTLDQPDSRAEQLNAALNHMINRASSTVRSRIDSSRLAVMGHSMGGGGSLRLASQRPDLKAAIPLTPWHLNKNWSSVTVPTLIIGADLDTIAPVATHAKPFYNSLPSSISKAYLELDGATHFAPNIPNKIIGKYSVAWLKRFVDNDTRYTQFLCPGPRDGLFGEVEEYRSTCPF [TfCut2]
A) 0.454

Q) Which terephthalic acid value is on record for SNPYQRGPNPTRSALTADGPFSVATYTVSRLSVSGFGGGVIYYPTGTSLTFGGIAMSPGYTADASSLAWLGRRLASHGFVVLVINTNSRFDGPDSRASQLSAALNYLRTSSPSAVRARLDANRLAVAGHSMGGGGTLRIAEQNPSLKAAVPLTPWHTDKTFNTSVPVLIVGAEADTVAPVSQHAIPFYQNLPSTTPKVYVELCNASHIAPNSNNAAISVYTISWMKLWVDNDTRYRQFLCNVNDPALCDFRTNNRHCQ [LCC-ICCG] ?
A) 2.3

Q) Given the entry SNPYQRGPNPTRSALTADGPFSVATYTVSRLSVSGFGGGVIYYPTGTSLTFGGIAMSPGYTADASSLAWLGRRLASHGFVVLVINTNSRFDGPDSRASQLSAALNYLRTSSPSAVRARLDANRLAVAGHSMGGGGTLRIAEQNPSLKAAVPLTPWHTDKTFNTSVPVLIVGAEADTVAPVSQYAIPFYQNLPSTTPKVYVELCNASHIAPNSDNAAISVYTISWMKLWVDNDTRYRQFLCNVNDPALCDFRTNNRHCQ [LCC-A2] , report its measured terephthalic acid.
A) 2.66

Q) Which terephthalic acid value belongs to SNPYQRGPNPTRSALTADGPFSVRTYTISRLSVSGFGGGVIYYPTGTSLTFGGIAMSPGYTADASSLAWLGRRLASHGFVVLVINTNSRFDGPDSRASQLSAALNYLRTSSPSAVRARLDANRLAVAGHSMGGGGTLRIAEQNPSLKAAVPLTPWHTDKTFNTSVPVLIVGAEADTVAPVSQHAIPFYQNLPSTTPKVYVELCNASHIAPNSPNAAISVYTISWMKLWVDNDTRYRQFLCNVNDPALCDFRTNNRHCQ [LCC-ICCG RIP] ?
A) 1.27

Q) Which terephthalic acid is listed for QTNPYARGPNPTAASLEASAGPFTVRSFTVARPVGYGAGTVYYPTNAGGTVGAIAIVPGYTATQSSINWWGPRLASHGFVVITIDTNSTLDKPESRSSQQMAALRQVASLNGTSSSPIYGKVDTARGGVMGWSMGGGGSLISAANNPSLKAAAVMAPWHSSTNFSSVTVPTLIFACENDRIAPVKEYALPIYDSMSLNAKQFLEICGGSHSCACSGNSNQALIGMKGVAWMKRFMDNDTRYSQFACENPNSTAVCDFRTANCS [HotPETase] ?
A) 1.35

Q) Requested read-out: terephthalic acid. Entry: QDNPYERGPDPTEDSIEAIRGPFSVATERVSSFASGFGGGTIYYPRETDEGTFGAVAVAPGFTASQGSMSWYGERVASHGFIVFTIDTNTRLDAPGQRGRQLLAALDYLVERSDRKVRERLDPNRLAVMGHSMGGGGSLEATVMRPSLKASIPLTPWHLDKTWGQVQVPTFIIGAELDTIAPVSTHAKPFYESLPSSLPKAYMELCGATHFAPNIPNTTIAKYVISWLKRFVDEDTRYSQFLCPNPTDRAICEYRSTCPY [Cut190*SS]
A) 0.319

Q) Record request: terephthalic acid value, item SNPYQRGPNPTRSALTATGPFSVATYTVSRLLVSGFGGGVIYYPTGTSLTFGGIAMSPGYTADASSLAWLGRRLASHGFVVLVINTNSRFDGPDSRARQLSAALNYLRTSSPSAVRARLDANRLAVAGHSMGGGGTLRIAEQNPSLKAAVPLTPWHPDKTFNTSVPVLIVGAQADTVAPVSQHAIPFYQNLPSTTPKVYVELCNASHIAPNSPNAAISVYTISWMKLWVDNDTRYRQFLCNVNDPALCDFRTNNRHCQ [LCC-ICCG I6M]
A) 1.37

Q) Which terephthalic acid value is on record for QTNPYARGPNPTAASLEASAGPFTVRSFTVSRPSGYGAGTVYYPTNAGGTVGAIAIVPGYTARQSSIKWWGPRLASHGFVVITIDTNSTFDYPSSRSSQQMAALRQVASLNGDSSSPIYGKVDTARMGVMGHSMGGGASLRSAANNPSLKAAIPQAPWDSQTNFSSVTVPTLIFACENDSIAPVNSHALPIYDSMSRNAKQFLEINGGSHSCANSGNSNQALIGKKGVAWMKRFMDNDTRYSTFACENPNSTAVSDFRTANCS [DuraPETase] ?
A) 0.344

// next entry
Q) Bench note: what terephthalic acid did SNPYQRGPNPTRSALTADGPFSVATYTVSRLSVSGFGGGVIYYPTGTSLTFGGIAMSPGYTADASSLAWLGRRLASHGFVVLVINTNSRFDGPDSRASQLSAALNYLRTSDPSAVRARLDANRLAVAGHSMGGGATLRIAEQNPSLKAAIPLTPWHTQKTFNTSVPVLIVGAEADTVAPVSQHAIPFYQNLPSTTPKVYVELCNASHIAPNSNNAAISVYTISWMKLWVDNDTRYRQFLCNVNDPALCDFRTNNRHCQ [LCC-ICCG DAQI] show?
A) 1.99
